reported.endpoint: glass transition temperature (°C)
Numbers only, in °C.

{"molecule": "*C(=O)Nc1ccc(-c2ccc(N3C(=O)CC(N4C(=O)c5ccc(*)cc5C4=O)C3=O)cc2)cc1 (repeat unit)", "glass transition temperature, °C": 219.00}
{"molecule": "*C1C(=O)N(c2ccc(O[Si](CC)(CC)CC)cc2)C(=O)C1* (repeat unit)", "glass transition temperature, °C": 165.00}
{"molecule": "*CCOC(=O)c1cccc(C(=O)O*)c1 (repeat unit)", "glass transition temperature, °C": 58.00}

Query molecule follows.
Value of glass transition temperature reported for the molecule *[Se]c1c(Cl)c(Cl)c(*)c(Cl)c1Cl (repeat unit) is 104.00
